# target-or-system: CDK1/Cyclin B1 (Homo sapiens)
# experiment-summary: CDK1/Cyclin B1 Biochemical Assay (TR-FRET), 1 mM ATP
# condition-set: 0.15 μM Rb (Ser780)-biotin substrate, pH7.0, 60 min preincubation, 90 min reaction, room temperature
I'd appreciate it if you could supply pIC50 values for the items below.
Numbers only, as −log10 of the molar value.

Solved cases (4 shown):
compound	pIC50
CN(C(=O)O[C@H]1CC[C@@H](c2cc(Nc3ccc4c(c3F)CS(=O)(=O)N4)n[nH]2)C1)C1CCOC1 (relative stereo)	5.30
O=C(NC12CC(C1)C2)O[C@H]1CC[C@@H](c2cc(Nc3ccc4c(c3F)CS(=O)(=O)N4)n[nH]2)C1 (relative stereo)	7.19
CC1(NC(=O)O[C@H]2CC[C@@H](c3cc(Nc4ccc5c(c4F)CCS(=O)(=O)N5)n[nH]3)C2)CC1 (relative stereo)	6.46
CC1(C)CCCN1C(=O)O[C@H]1CC[C@@H](c2cc(Nc3ccc4c(c3F)CS(=O)(=O)N4)n[nH]2)C1 (relative stereo)	6.91

Look at each compound and report its pIC50.
1. O=C(NC1CC1)O[C@H]1CC[C@@H](c2cc(Nc3ccc4c(c3F)CS(=O)(=O)N4)n[nH]2)C1 (relative stereo)
2. CC[C@H](C)NC(=O)O[C@H]1CC[C@@H](c2cc(Nc3ccc4c(c3F)CCS(=O)(=O)N4)n[nH]2)C1 (relative stereo)

1. 5.70
2. 6.57

* * *

# target-or-system: CDK2/Cyclin E1 (Homo sapiens, UniProt P24941)
# experiment-summary: CDK2/Cyclin E1 Biochemical Assay (TR-FRET), 0.060 mM ATP
# condition-set: 0.15 μM Rb (Ser780)-biotin substrate, pH7.0, 60 min preincubation, 120 min reaction, room temperature
Provide the reported pIC50 of each item.
Answers are plain numbers, as −log10 of the molar value.

// solved cases for pIC50 follow
compound	property-name	number
CN1c2ccc(Nc3cc([C@@H]4CC[C@H](OC(=O)NC5CC6(CCC6)C5)C4)[nH]n3)cc2CS1(=O)=O (relative stereo)	pIC50	7.54
Cc1cc(Nc2cc([C@@H]3CC[C@H](OC(=O)NC(C)C)C3)[nH]n2)cc2c1NS(=O)(=O)C2 (relative stereo)	pIC50	8.29
O=C(NC1CCC1)O[C@H]1CC[C@@H](c2cc(Nc3ccc4c(c3)CS(=O)(=O)N4)n[nH]2)C1 (single isomer, unassigned) [Example 380b]	pIC50	9.05
CC(C)NC(=O)O[C@H]1CC[C@@H](c2cc(Nc3cc4c(cc3Cl)S(=O)(=O)NC4)n[nH]2)C1 (relative stereo)	pIC50	7.48
CC(C)(C)NC(=O)O[C@H]1CC[C@@H](c2cc(Nc3cc4c(cc3F)S(=O)(=O)NC4)n[nH]2)C1 (single isomer, unassigned) [Example 395b]	pIC50	8.89

// recorded pIC50 for CC(C)NC(=O)O[C@H]1CC[C@@H](c2cc(Nc3cc4c(cc3OC(F)(F)F)S(=O)(=O)NC4)n[nH]2)C1 (relative stereo) : 5.90

* * *

# target-or-system: CDK1/Cyclin B1 (Homo sapiens, UniProt P06493)
# Sequence (P06493 whole entry): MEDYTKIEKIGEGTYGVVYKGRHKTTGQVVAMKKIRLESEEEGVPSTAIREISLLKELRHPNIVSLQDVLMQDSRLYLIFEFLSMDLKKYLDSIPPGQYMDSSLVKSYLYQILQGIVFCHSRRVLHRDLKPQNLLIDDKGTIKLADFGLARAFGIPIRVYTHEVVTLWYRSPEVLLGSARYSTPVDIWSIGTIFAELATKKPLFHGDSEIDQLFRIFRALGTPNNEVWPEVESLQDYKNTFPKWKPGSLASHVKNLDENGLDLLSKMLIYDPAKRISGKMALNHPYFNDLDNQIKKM
# Sequence (P14635 whole entry partner): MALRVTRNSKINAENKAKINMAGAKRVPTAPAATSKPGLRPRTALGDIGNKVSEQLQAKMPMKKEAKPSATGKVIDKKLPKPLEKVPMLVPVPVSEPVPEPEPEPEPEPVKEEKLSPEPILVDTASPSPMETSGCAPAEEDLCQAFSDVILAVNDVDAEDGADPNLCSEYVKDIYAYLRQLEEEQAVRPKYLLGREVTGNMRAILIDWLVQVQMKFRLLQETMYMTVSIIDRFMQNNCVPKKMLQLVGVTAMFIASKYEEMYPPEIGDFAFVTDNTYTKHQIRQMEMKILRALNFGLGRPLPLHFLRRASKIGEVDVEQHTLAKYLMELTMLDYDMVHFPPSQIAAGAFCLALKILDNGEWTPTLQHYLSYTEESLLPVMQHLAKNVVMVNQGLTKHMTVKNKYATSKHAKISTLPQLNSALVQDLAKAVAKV
# experiment-summary: CDK1/Cyclin B1 Biochemical Assay (TR-FRET), 1 mM ATP
# condition-set: 0.15 μM Rb (Ser780)-biotin substrate, pH7.0, 60 min preincubation, 90 min reaction, room temperature
property-name: log10 IC50 (log10 of the value in nM)
Lab note - IC50 converted to log10 from values in nM.

molecule	target-or-system	log10 IC50
CC1(NC(=O)O[C@H]2CC[C@@H](c3cc(Nc4cc5c(cc4F)S(=O)(=O)NC5)n[nH]3)C2)CCC1 (relative stereo)	CDK1/Cyclin B1 (Homo sapiens, UniProt P06493)	3.02

Report log10 IC50 for every entry below.
1. O=C(NC12CC(C1)C2)O[C@H]1CC[C@@H](c2cc(Nc3cc4c(cc3F)S(=O)(=O)NC4)n[nH]2)C1 (single isomer, unassigned) [Example 422b]
2. O=C(N[C@@H]1C[C@H]1O)O[C@H]1CC[C@@H](c2cc(Nc3ccc4c(c3F)CNS4(=O)=O)n[nH]2)C1 (relative stereo)
3. CC(C)NC(=O)O[C@H]1CC[C@@H](c2cc(Nc3ccc4c(c3F)N(C)S(=O)(=O)N4C)n[nH]2)C1 (relative stereo)
4. CN1c2ccc(Nc3cc([C@@H]4CC[C@H](OC(=O)NC56CC(C5)C6)C4)[nH]n3)c(F)c2CS1(=O)=O (relative stereo)
5. [2H]C([2H])([2H])N1c2ccc(Nc3cc([C@@H]4CC[C@H](OC(=O)NC56CC(C5)C6)C4)[nH]n3)cc2CS1(=O)=O (relative stereo)

1. 2.99
2. 3.48
3. 3.54
4. 2.69
5. 1.99

* * *

# target-or-system: CDK2/Cyclin E1 (Homo sapiens, UniProt P24941)
# experiment-summary: CDK2/Cyclin E1 Biochemical Assay (TR-FRET), 0.060 mM ATP
# condition-set: 0.15 μM Rb (Ser780)-biotin substrate, pH7.0, 60 min preincubation, 120 min reaction, room temperature
property-name: pIC50
One number for each entry, as −log10 of the molar value.

Some entries whose results are on file:
molecule	target-or-system	pIC50
CC(C)NC(=O)O[C@H]1CC[C@@H](c2cc(Nc3ccc4c(c3F)CN(CCCN(C)C)S4(=O)=O)n[nH]2)C1 (relative stereo) [Example 73]	CDK2/Cyclin E1 (Homo sapiens, UniProt P24941)	8.10
CCCNC(=O)O[C@H]1CC[C@@H](c2cc(Nc3cc4c(cc3F)N(CCO)S(=O)(=O)C4)n[nH]2)C1 (relative stereo) [Example 297]	CDK2/Cyclin E1 (Homo sapiens, UniProt P24941)	7.42
CN1c2ccc(Nc3cc([C@@H]4CC[C@H](OC(=O)NC5(C)CCOC5)C4)[nH]n3)c(F)c2CS1(=O)=O (single isomer, unassigned) [Example 349c]	CDK2/Cyclin E1 (Homo sapiens, UniProt P24941)	8.72
CC(C)(C)NC(=O)O[C@H]1CC[C@@H](c2cc(Nc3ccc4c(c3)CS(=O)(=O)N4)n[nH]2)C1 [Example 403b]	CDK2/Cyclin E1 (Homo sapiens, UniProt P24941)	8.96
CN1c2ccc(Nc3cc([C@@H]4CC[C@H](OC(=O)NC5CCC5)C4)[nH]n3)cc2CS1(=O)=O (single isomer, unassigned) [Example 227b]	CDK2/Cyclin E1 (Homo sapiens, UniProt P24941)	8.89

Shifting focus to the molecule that follows.
Kindly note the recorded pIC50 for CC1(NC(=O)O[C@H]2CC[C@@H](c3cc(Nc4ccc5c(c4F)CS(=O)(=O)N5)n[nH]3)C2)CC1 (single isomer, unassigned) [Example 388b] , which is 8.89

* * *

Kindly state IC50 for each of the entries shown.
# target-or-system: CDK2/Cyclin E1 (Homo sapiens, UniProt P24941)
# experiment-summary: CDK2/Cyclin E1 Biochemical Assay (TR-FRET), 1 mM ATP
# condition-set: 0.15 μM Rb (Ser780)-biotin substrate, pH7.0, 60 min preincubation, 90 min reaction, room temperature
Answers are plain numbers, in nM.

Known results for molecules:
molecule	target-or-system	IC50 (nM)
O=C(N[C@@H]1C[C@H]1O)O[C@H]1CC[C@@H](c2cc(Nc3ccc4c(c3F)CNS4(=O)=O)n[nH]2)C1 (relative stereo)	CDK2/Cyclin E1 (Homo sapiens, UniProt P24941)	55
CCCNC(=O)O[C@@H]1CC[C@H](c2cc(Nc3ccc4c(c3F)CS(=O)(=O)N4CC(C)(C)O)n[nH]2)C1 [Example 433a]	CDK2/Cyclin E1 (Homo sapiens, UniProt P24941)	18
CC(C)NC(=O)O[C@H]1CC[C@@H](c2cc(Nc3ccc4c(c3F)NS(=O)(=O)N4C)n[nH]2)C1 (relative stereo)	CDK2/Cyclin E1 (Homo sapiens, UniProt P24941)	530
O=C(NC1CC1)O[C@H]1CC[C@@H](c2cc(Nc3ccc4c(c3F)CS(=O)(=O)N4)n[nH]2)C1 (relative stereo)	CDK2/Cyclin E1 (Homo sapiens, UniProt P24941)	6
O=C(NCCC(F)(F)F)O[C@H]1CC[C@@H](c2cc(Nc3ccc4c(c3F)CS(=O)(=O)N4)n[nH]2)C1 (relative stereo)	CDK2/Cyclin E1 (Homo sapiens, UniProt P24941)	4.7

Let's switch to this molecule now.
Reported IC50 of CN1c2ccc(Nc3cc([C@@H]4CC[C@H](OC(=O)NCC(C)(C)O)C4)[nH]n3)c(F)c2CS1(=O)=O (single isomer, unassigned) [Example 330a] : 84

* * *

Could you please report measured IC50 for the items listed next?
# target-or-system: CDK2/Cyclin E1 (Homo sapiens)
# experiment-summary: CDK2/Cyclin E1 Biochemical Assay (TR-FRET), 0.060 mM ATP
# condition-set: 0.15 μM Rb (Ser780)-biotin substrate, pH7.0, 60 min preincubation, 120 min reaction, room temperature
Numbers only, in nM.

# example entries with known answers
compound	target-or-system	property-name	reading-unit	number
CC(C)NC(=O)O[C@H]1CC[C@@H](c2cc(Nc3cc4c(cc3F)CS(=O)(=O)N4)n[nH]2)C1 (relative stereo) [Example 310]	CDK2/Cyclin E1 (Homo sapiens)	IC50	nM	81
C[C@]1(O)CC[C@@H](NC(=O)O[C@H]2CC[C@@H](c3cc(Nc4ccc5c(c4F)CNS5(=O)=O)n[nH]3)C2)CC1 (relative stereo) [Example 144]	CDK2/Cyclin E1 (Homo sapiens)	IC50	nM	3.9
CC(NC(=O)O[C@H]1CC[C@@H](c2cc(Nc3ccc4c(c3)CS(=O)(=O)N4)n[nH]2)C1)C1COC1 (relative stereo) [Example 343]	CDK2/Cyclin E1 (Homo sapiens)	IC50	nM	3.2
O=C(NC1(CO)CCC1)O[C@H]1CC[C@@H](c2cc(Nc3cc4c(cc3F)NS(=O)(=O)C4)n[nH]2)C1 (relative stereo) [Example 408]	CDK2/Cyclin E1 (Homo sapiens)	IC50	nM	35
CC(C)NC(=O)O[C@H]1CC[C@@H](c2cc(Nc3ccc4c(c3)S(=O)(=O)NC4C)[nH]n2)C1 (single isomer, unassigned) [Example 5c]	CDK2/Cyclin E1 (Homo sapiens)	IC50	nM	4.2

Batch lookup, IC50 per entry.
1. [2H]C([2H])([2H])N1c2c(F)cc(Nc3cc([C@@H]4CC[C@H](OC(=O)NCCC)C4)[nH]n3)cc2CS1(=O)=O (single isomer, unassigned) [Example 290b]
2. CN1c2ccc(Nc3cc([C@@H]4CC[C@H](OC(=O)NC5(C)CC5)C4)[nH]n3)c(F)c2CS1(=O)=O (relative stereo) [Example 257]
3. O=C(O[C@H]1CC[C@@H](c2cc(Nc3ccc4c(c3F)CS(=O)(=O)N4)n[nH]2)C1)N1CCOCC1 (relative stereo) [Example 415]
4. [2H]C([2H])([2H])N1c2ccc(Nc3cc([C@@H]4CC[C@H](OC(=O)NCCC)C4)[nH]n3)c(F)c2CS1(=O)=O (single isomer, unassigned) [Example 268b]
5. CC(C)NC(=O)O[C@H]1CC[C@@H](c2cc(Nc3ccc4c(c3F)CN(C3CCC3)S4(=O)=O)n[nH]2)C1 (relative stereo) [Example 67]
6. CC(C)NC(=O)O[C@H]1CC[C@@H](c2cc(Nc3ccc4c(c3)CS(=O)(=O)N4CCCO)n[nH]2)C1 (relative stereo) [Example 215]
7. CC(C)NC(=O)O[C@H]1CC[C@@H](c2cc(Nc3ccc4c(c3F)CN(C3CN(S(C)(=O)=O)C3)S4(=O)=O)n[nH]2)C1 (relative stereo) [Example 89]
8. CC[C@H](C)NC(=O)O[C@H]1CC[C@@H](c2cc(Nc3ccc4c(c3F)CS(=O)(=O)N4C)n[nH]2)C1 (relative stereo) [Example 258]

[7.5, 1.5, 26, 4, 14, 3.1, 34, 1.5]
